These measurements were taken from ChEMBL document CHEMBL1201862.

# Test system: PC-3
# protocol description: NCI tumour cell line growth inhibition, 48 h
The source made the active and inactive calls. Cut-off read from the data, not from the text of the source: active = GI50 up to about 1.1 µM and inactive = higher.
# valid calls are label 1 for active, label 0 for inactive; nothing else

Take a look at these entries with their results.
compound: Cc1c(N)nc(C(CC(N)=O)NCC(N)C(N)=O)nc1C(=O)NC(C(=O)NC(C)C(O)C(C)C(=O)NC(C(=O)NCCc1nc(-c2nc(C(=O)NCCCNC(C)c3ccccc3)cs2)cs1)C(C)O)C(OC1OC(CO)C(O)C(O)C1OC1OC(CO)C(O)C(OC(N)=O)C1O)c1c[nH]cn1 (centres undefined)
qualitative label: label 0

compound: CC(=O)OC12OC(C)(C3C(=O)N(c4ccccc4)C(=O)C31)N(c1ccccc1)C2=O (centres undefined)
qualitative label: label 0

compound: OCC1OC(c2scc3c(=S)[nH]cnc23)C(O)C1O (centres undefined)
qualitative label: label 0

compound: CC(=O)OC1CCn2c1nc1cc([N+](=O)[O-])c(C)cc12 (centres undefined)
qualitative label: label 0

compound: CSc1nc(Cl)c2c(n1)Sc1nc3cc4c(cc3n1C2O)OCCO4 (centres undefined)
qualitative label: label 1

compound: CCOC(=O)c1csc(-c2cn(C)c3c2C(=O)C(OC)=CC3=O)n1
qualitative label: label 0

compound: COc1ccc(/C=N/c2nc3cc4sc(/N=C/c5ccc(OC)cc5)nc4cc3s2)cc1
qualitative label: label 0

compound: CC(=N\N)/C(C)=N/N=C(C)/C(C)=N/N=C(C)/C(C)=N/N
qualitative label: label 0

Moving on to another compound below.
Request: What is the recorded call for this compound in the test? CC1CC(=O)N(N(C)C)C2(C#N)C(=O)N=C(N)C12C#N (centres undefined)
Response: label 0

----------
# Test system: MDA-MB-231
# protocol description: NCI tumour cell line growth inhibition, 48 h
Active and inactive are the calls of the source. Cut-off read from the data, not from the text of the source: active = GI50 up to about 1.1 µM and inactive = higher.
readout: GI50

Sample answers from the record:
compound: CC1(C)CCCCCC(C)(CCCO)C1=O (configuration not stated)
GI50: > 100 µM (inactive)

compound: O=C1c2ccccc2NC2C(O)c3ccccc3N12 (configuration not stated)
GI50: > 100 µM (inactive)

compound: CSc1nc(Cl)c2c(n1)Sc1nc3cc4c(cc3n1C2O)OCCO4 (configuration not stated)
GI50: 0.321 µM (active)

compound: CCn1c2c(c3ccccc3c1=O)C(=O)c1ccccc1-2
GI50: 85.7 µM (inactive)

compound: Clc1ccc(Nc2nnc(CCCCCCCCc3nnc(Nc4ccc(Cl)cc4)o3)o2)cc1
GI50: 44.2 µM (inactive)

Return reported GI50 values for all items listed beneath this line.
1. COc1cc2c(cc1O)[C@@H]1Cc3c(cc(OC)c(OC)c3Oc3cc4c(cc3OC)CCN(C)[C@@H]4Cc3ccc(O)cc3)[C@H](C2)N1C
2. COc1ccc2oc(=O)c(-c3nc4ccccc4o3)cc2c1

Response:
43.3 µM (inactive)
32.7 µM (inactive)

----------
# Test system: Hs-578T
# protocol description: NCI tumour cell line growth inhibition, 48 h
Activity calls are given as the source filed them. No stated cut-off is given here; in the data, active = GI50 up to about 1.1 µM and inactive = higher.
Choose the fitting class; nothing outside active, inactive is accepted.

Below are worked cases with known answers.
molecular string: O=c1c(C(c2cnc3ccccc3c2)c2c(O)oc3ccccc3c2=O)c(O)oc2ccccc12
qualitative label: inactive

molecular string: O=C(c1ccccc1)c1ccc2c(c1)NC(=O)c1ccccc1SSc1ccccc1C(=O)N2
qualitative label: inactive

molecular string: Cc1cccc2c(N)c3cccc(C(=O)NCC[N+](C)(C)Cc4sc(N5CCOCC5)nc4[N+](=O)[O-])c3nc12
qualitative label: active

molecular string: Cn1c(-c2ccccc2)cc(-c2ccc3c(c2)OCO3)c1-c1ccsc1
qualitative label: inactive

Request: Can you look up the reported call for C=C1C(=O)O[C@@H]2C=C(C)C3=CC(=O)[C@](C)(C[C@H](OC(=O)/C(C)=C\C)[C@@H]12)O3 for me?
Response: inactive
